target: IRAK4 (Homo sapiens); test: 2-hour 10 μM ATP Biochemical Assay (MesoScale Detection format; IRAK4 phosphorylation of biotin labeled IRAK1 activation loop peptide); settings: IRAK4 MSD BIOCHEMICAL (10 μM ATP) IC50 (μM), 1 nM IRAK4, 2 hours
Sequence (Q9NWZ3 whole entry): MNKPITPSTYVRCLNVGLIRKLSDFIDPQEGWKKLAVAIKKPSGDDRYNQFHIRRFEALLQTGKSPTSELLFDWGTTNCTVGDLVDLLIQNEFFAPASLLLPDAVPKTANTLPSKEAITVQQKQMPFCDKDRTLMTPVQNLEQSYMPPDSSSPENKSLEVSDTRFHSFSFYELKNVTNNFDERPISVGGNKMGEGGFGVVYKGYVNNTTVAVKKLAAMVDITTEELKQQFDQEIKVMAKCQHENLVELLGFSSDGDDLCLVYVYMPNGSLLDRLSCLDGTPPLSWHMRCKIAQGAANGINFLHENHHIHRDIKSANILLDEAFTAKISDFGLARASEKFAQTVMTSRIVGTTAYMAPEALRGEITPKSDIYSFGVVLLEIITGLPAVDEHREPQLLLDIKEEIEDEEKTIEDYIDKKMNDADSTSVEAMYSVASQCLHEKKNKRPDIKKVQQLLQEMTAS
Some compounds, each annotated with its measured IC50.
Give just the numeric value; µM need not be written.

Completed entries (count: 5):
CCOc1cc2nc(CC3CCOC3)cn2cc1NC(=O)c1ccn(CC(F)F)n1 (centres unmarked) [Example 125] ... 0.004
O=C(Nc1cn2cc(C3CC3)nc2cc1OCC(F)(F)F)c1cccc(C(F)F)n1 [Example 26] ... 0.003
CC1(C)CCC(Oc2cc3nc(C4CCOCC4)cn3cc2NC(=O)c2cccc(C(F)F)n2)C1 (centres unmarked) [Example 180] ... 0.001
C[C@@H](COc1cc2nc(C3CC3)cn2cc1NC(=O)c1cccc(C(F)F)n1)n1ccccc1=O (single isomer, unassigned) [Example 8] ... 0.14
CC1(COc2cc3nc(C[C@@H]4CCOC4)cn3cc2NC(=O)c2cccc(C(F)(F)F)n2)COC1 (single isomer, unassigned) [Example 164] ... 0.003

[ask] Find the recorded IC50 belonging to CCOc1cc2nc(CC)cn2cc1NC(=O)c1cccc(NC(C)=O)n1 [Example 32] and report it.
[reply] 0.064

[ask] Find the recorded IC50 belonging to CCOc1cc2nc(C3CCOC3)cn2cc1NC(=O)c1cccc(C(F)(F)F)n1 (centres unmarked) [Example 59] and report it.
[reply] 0.002

[ask] Find the recorded IC50 belonging to CCOc1cc2nc(COC)cn2cc1NC(=O)c1cccc(C(F)(F)F)n1 [Example 56] and report it.
[reply] 0.005

[ask] Find the recorded IC50 belonging to CCOc1cc2nc(C(C)C3CCOC3)cn2cc1NC(=O)c1cccc(C(F)(F)F)n1 (mixture of isomers) [Example 137] and report it.
[reply] 0.001

[ask] Find the recorded IC50 belonging to CCOc1cc2nc(C3(C#N)CCOCC3)cn2cc1NC(=O)c1cccc(C(F)F)n1 [Example 160] and report it.
[reply] 0.001

[ask] Find the recorded IC50 belonging to COc1nc(NC(=O)c2cccc(C(F)F)n2)cn2cc(C3CCOCC3)nc12 [Example 450] and report it.
[reply] 0.003

[ask] Find the recorded IC50 belonging to CCOc1cc2nc(C34CC(C(C)(C)O)(C3)C4)cn2cc1NC(=O)c1cccc(C(F)F)n1 [Example 129] and report it.
[reply] 0.001

[ask] Find the recorded IC50 belonging to CCOc1cc2nc(CC3CCOC3)cn2cc1NC(=O)c1nc(C)no1 (centres unmarked) [Example 158] and report it.
[reply] 2.9

[ask] Find the recorded IC50 belonging to O=C(Nc1cn2cc(C3CCOCC3)nc2cc1OC1CCC1)c1cccc(C(F)F)n1 [Example 176] and report it.
[reply] 0.001

[ask] Find the recorded IC50 belonging to CCOc1cc2nc(CC3CCOC3)cn2cc1NC(=O)c1nc(C)co1 (centres unmarked) [Example 154] and report it.
[reply] 0.22

[ask] Find the recorded IC50 belonging to C[C@@H]1C[C@@H](Oc2cc3nc(C4CCOCC4)cn3cc2NC(=O)c2cccc(C(F)F)n2)CCO1 (relative stereo) [Example 186] and report it.
[reply] 0.001

[ask] Find the recorded IC50 belonging to CCOc1cc2nc(C3CC3)cn2cc1NC(=O)c1cccc(C2(O)CCC2)n1 [Example 132] and report it.
[reply] 0.018

[ask] Find the recorded IC50 belonging to CC(C#N)Oc1cc2nc(C3CCOCC3)cn2cc1NC(=O)c1cccc(C(F)F)n1 (centres unmarked) [Example 173] and report it.
[reply] 0.001

[ask] Find the recorded IC50 belonging to CCOc1cc2nc(CC3CCOC3)cn2cc1NC(=O)c1ccc2c(n1)CCC2 (centres unmarked) [Example 369] and report it.
[reply] 0.002

[ask] Find the recorded IC50 belonging to CCOc1cc2nc(CC3CCOC3)cn2cc1NC(=O)c1coc(-c2cnn(C)c2)n1 (single isomer, unassigned) [Example 251] and report it.
[reply] 0.002

[ask] Find the recorded IC50 belonging to CCOc1cc2nc(C3CC3)cn2cc1NC(=O)c1cccn(CC(F)(F)F)c1=O [Example 70] and report it.
[reply] 0.15

[ask] Find the recorded IC50 belonging to CCOc1cc2nc([C@H](O)C3CC3)cn2cc1NC(=O)c1cccc(C(F)(F)F)n1 (single isomer, unassigned) [Example 170] and report it.
[reply] 0.004

[ask] Find the recorded IC50 belonging to CCOc1cc2nc(C(C)(C)C#N)cn2cc1NC(=O)c1coc(C2CC2)n1 [Example 360] and report it.
[reply] 0.006

[ask] Find the recorded IC50 belonging to CCOc1cc2nc(CC)cn2cc1NC(=O)c1nc(C(F)(F)F)ccc1F [Example 36] and report it.
[reply] 0.26

[ask] Find the recorded IC50 belonging to CC1(COc2cc3nc(C4CCOCC4)cn3cc2NC(=O)c2cnn(C(F)F)c2)COC1 [Example 161] and report it.
[reply] 0.4

[ask] Find the recorded IC50 belonging to CCOc1cc2nc(C3(CO)CC3)cn2cc1NC(=O)c1cccc(C(F)F)n1 [Example 98] and report it.
[reply] 0.008
